This section presents compounds with their documented melting point values.

Dear colleague, please send me the reported melting point for COc1cc(C(=O)O)ccc1-c1nc2cc(Cl)c(Cl)cc2[nH]1 when you can.
> 250 °C

Provide one value: measured melting point of CCOC(=O)c1cn(CC)c2nc3cc(Cl)c(F)cc3cc2c1=O
300 to 301 °C

----------
MEASURED METRIC: melting point

Here are 4 compounds together with their reported answers.
[[record]]
smiles_input = "O=C1Cc2cc(CCN3CCC(c4noc5cc(F)ccc45)CC3)ccc2N1"
measured_metric = "melting point"
result = "199 to 204 °C"

[[record]]
smiles_input = "[N-]=[N+]=NC[C@H]1CN(c2cccc(F)c2)C(=O)O1"
measured_metric = "melting point"
result = "81 to 82 °C"

[[record]]
smiles_input = "O=C(O)C1(CS(=O)(=O)c2ccc(Oc3ccccc3)cc2)CCOCC1"
measured_metric = "melting point"
result = "162 to 165 °C"

[[record]]
smiles_input = "CCOC(=O)c1c(C(C)C)nc(-c2ccccc2)c(-c2ccccc2)c1-c1ccc(F)cc1"
measured_metric = "melting point"
result = "135 to 136 °C"


Consider now this further compound.
Input CN1C(=O)CC[C@]2(C)c3ccc(NC(=O)c4cccc([N+](=O)[O-])c4)cc3CC[C@@H]12 , output reported melting point.
240 to 242 °C

----------
Reported melting point is given for each of the following compounds.

[[record]]
compound = "COc1ccc(NC(=O)c2cnc3ccccc3c2O)cc1"
measured_metric = "melting point"
result = "> 260 °C"


For the compound N=C(N)c1cccc(S(=O)(=O)c2ccc(OC[C@@H]3C[C@@H](CC(=O)O)C(=O)N3CCCc3ccccc3)cc2)c1 , give its reported melting point.
205 to 207 °C

Provide measured melting point value, entry: CCOC(=O)c1c(NC(=O)NC(C)C)sc(C)c1C
135 °C

Fill in melting point for record O=C(O)Cc1cccc(-c2onc3ccccc23)c1
143 to 145 °C

----------
In this section we review reported melting point values for a set of molecules.

[[record]]
molecule = "OCCC(CCS)c1ccncc1 (stereo unspecified)"
result = "50 to 52 °C"

[[record]]
molecule = "COC(=O)c1cc([N+](=O)[O-])ccc1F"
result = "52 to 53 °C"

[[record]]
molecule = "O=[N+]([O-])c1ccc(Sc2nccn2Cc2ccccc2)cc1"
result = "122 to 123 °C"

[[record]]
molecule = "CCC(C)(Cc1c[nH]c2ccc(F)cc12)[N+](=O)[O-] (stereo unspecified)"
result = "71 to 72 °C"


# return recorded melting point for entry CC(C)=C1CC(=O)N(c2cc(F)c(C#N)cc2F)C1=O
135 °C

Annotate the molecule CCn1ncc2c(NCC3CCCCC3)c3ccccc3nc21 with its measured melting point.
161 to 163 °C

Write down melting point measured for item Cc1c(C#N)ncn1-c1cccc(Oc2ccccc2)c1
97 to 98 °C

Note down melting point recorded for CCc1cccc2c3c([nH]c12)C(CC)(CC(O)O)OCC3 (stereo unspecified)
158 to 159 °C

Please look at this molecule and report its melting point: O=C(Nc1cnccn1)N1CCN(c2nc(-c3ccccc3)cs2)CC1
134 to 135 °C

Complete the entry with melting point for CCCN1N=C2C(=Cc3ccccc3)CS(=O)CC2C1c1ccccc1 (stereo unspecified)
164 to 166 °C

# return recorded melting point for input CC(C)CNS(=O)(=O)c1ccc2c(c1)C=C(C(=O)O)C(C(F)(F)F)O2 (stereo unspecified)
191 to 192 °C
